The origin of these recorded values is patent US12324893B2.

assay: Effect of filament density, poration energy and filament array size on PK profile (Examples 7-9); design: species or system guinea pigs; conditions: guinea pig, in vivo, sc, 2 mg, Table 15 # 2: 400 filaments/cm^2, 3 mJ/filament, 1.0 cm^2; 2.00 mg patch; relative bioavailability against SC injection; read-out: Bioavailability ± SE
experimental_readout: bioavailability

Given `CN(C)CCc1c[nH]c2ccc(C[C@H]3COC(=O)N3)cc12` , respond with its bioavailability.
85%

----------
experiment: Effect of filament density, poration energy and filament array size on PK profile (Examples 7-9); design: species or system guinea pigs; conditions: guinea pig, in vivo, topical or ocular, 2 mg, Table 17 # 2: dose 2.00 mg, 4 mJ/filament, filament array area 1.0 cm^2, 400 filaments/cm^2
experimental_readout: AUC

Given CN(C)CCc1c[nH]c2ccc(C[C@H]3COC(=O)N3)cc12 [Zolmitriptan] , respond with its AUC.
2100 ng·h/mL
